Test: soluble fraction after stress (log2 fold change); higher = more stays soluble; pooled small domains, quantitative proteomics;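 note: 20 min heating vs room temperature control held 20 min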
Conditions: stress: 75 degC
Please provide measured soluble fraction (log2) for the entries that follow.
No unit in the answer, only the number.

Query: Input HMKQLNKRQDDILSLAEKEGYVSVENLAKTFTVSQQTIRRDINYLSDHEFLVRTHGGAFYSSG , output reported soluble fraction (log2).
Result: -0.252

Query: In one line, give reported soluble fraction (log2) of the entry HMVELPDLIGKSKRLAFTQLEISGLKIGKIIYEPDLAKDAVLKILYNGKIVKAGEQLPRFATVDLVLG .
Result: -2.11

Query: Look up and state reported soluble fraction (log2) for HMNLYENLATHVKNAIRQGVYQPGDRLPSVRRLSEQHRVSQNTAVSAYRLLESHGWLEARPQSGFFARHP
Result: -1.42

Query: Provide soluble fraction (log2) value for the following sequence: HMKDYKSSLQERVQAVGGGQLIYRVNREEGPDHSKTFYMDLFLGDRLIGTGSGRNKKQAEQQAAKEAIERG
Result: -0.283

Query: For the sequence HMGSYVVQLGAFAIRANAEKLAREVDGSIATSGRFSLVRVGPFTSRGQAEQALAKLRARGYSDALIHSL , report soluble fraction (log2).
Result: -2.39

Query: Entry HMQMEISQRIKLERQTLKWTQEELADKIFVSKRTISNWETGRTVPDIESVLRLAKVFHVSLEDLLL needs its soluble fraction (log2) filled in; supply it.
Result: -4.46

Query: Specify soluble fraction (log2) for HMRTSIWTAIAHSLRSDIGSGVYGPDDKLPTESALAARFGVNRHTVRHAIKALTDEGLVLPRRGAGVFVTS and stop.
Result: -0.241

Query: Let me know recorded soluble fraction (log2) for HMQARDQNVDEGKALLEKEFSRLALENLDRDKLANAVNYPTRDDMYAAIGAGDLRVGQVLHQAQQLF , thanks.
Result: 0.226

---

Test: soluble fraction after stress (log2 fold change); higher = more stays soluble; pooled small domains, quantitative proteomics
Settings: stress: 75 degC
PARAMETER: soluble fraction (log2)
Field format: numeric only.

Query: For the sequence HMRSRHYRFSTPFLDRLIAEIDWNSDNALSIFNQKLVHFDFLKYFSAIQPGSIVEIENLNFIWTGKRLEAH , give its reported soluble fraction (log2).
Result: -3.37

Query: Give recorded soluble fraction (log2). HMLPSELLAQQRIVVQPGHNLWRIARATYGRGARYTVIYQANREQIADPNRIFPGQVFALPAA
Result: -0.102

Query: Assign soluble fraction (log2) to the following record: HMLAQYPGQVFSKEQIYNQVWKEPYYGVEDNVMSLIRRIRKKIEPDPSRPIYILTVWGIGYKFNN
Result: 0.0812

Query: Tell us which soluble fraction (log2) value is on record for HMPVISGQDLRVLIRDTGRERDQGISFLDDGTMVVVEDARRLIGQEVTATVTRVHQTQTGRIVFAHLSN
Result: -1.25

Query: Give the reported value of soluble fraction (log2) for this record: HMTENIPPVKIEEMRQKWQDIVLLHGVTSGRKIKSGQATYIWLYRNDQNWLLTFNSRHLSQPQV
Result: 0.232

Query: # return recorded soluble fraction (log2) for entry HMKVFTEDEMLEKIKEYLSTNSYINRRVMETQFGLRQNIALKWLKHFTEIGVLRKEGERNSPIYFLNN
Result: -0.356

Query: Could you please provide reported soluble fraction (log2) for HMPQLEDLEPLDSSGMVRRDGPHLVLAVGRHRGRHLEEVRDSDPSYLHWLLSPKGIEDIQAKEDIKTYLNL ? Thanks!
Result: -0.0235

Query: Read the entry HMNIKITKSKNSEHYSIIYNTKINGKRTSKIYENIGNFEKLKLRAGEQEPIEWLKNYVSELNKKQKEDT and write its reported soluble fraction (log2).
Result: 0.11

Query: Answer with the recorded soluble fraction (log2) for the sequence listed here: HMAPDNDELEKAKKIVNAFIEAKAKGLGVVSLGTKMIDAPVVKRAQKIIDQTIVMGKLSLNWQDEFFN
Result: -0.208

Query: Indicate the recorded soluble fraction (log2) value for this sequence: HMQLPFTPREHEITQLLSRGLSNRQIAEALSLSVRTVEGHIYQASTKLGISSRSELAVLVGQFA
Result: -1.94

Query: Please report soluble fraction (log2) for the following sequence: HMIFEETVFKDIAFGPKNMGLSEAEIKRRVYETAENIGLSQELMERSPFELSGGQKRRVAIAGVMAMEP
Result: 0.268

Query: // fetch soluble fraction (log2) given entry HMSGSGYAYVDKYGYSHVVKDYDTAKNYASDGNVYNYSGSHKGGYAYDADNYRVPLDLPGSKPYG
Result: 0.191

Query: // Input: HMEQTIKKYVNVATLNFRSGPSTSYSIISTLSKGTKVEVISTTNNWSKIIYDGKIGYVSSEYLSKSI . Output its soluble fraction (log2) only.
Result: -3.07

Query: State, in one line, measured soluble fraction (log2) of HMDAPQRVTYLLPHSRGEVVSWLHRQGEVVAQEYEAEGVRVVVDLRYAQIRQAAKQFDVLPAEG
Result: -1.24

Query: Supply soluble fraction (log2) value. Item: HMSEEKLVFSIPDDIETMRIDKAIALETHLSRAQIAELFKENKILLNSKNSKRSEKVKPGDKISLEFIPKI
Result: -0.0442

Query: Note soluble fraction (log2) for the sequence shown: HMNGEAQTMYVTARTLNVRKGPGTSYAKAGTLSRGTAVQVVGFSGNWAKLSNGYYVSTSYLAKI
Result: -4.25

Query: Output measured soluble fraction (log2) for this item: HMTELLTPKQRQVFELALREGYYDVPRRTSITEMARLLGVAKSTLSAQMHRMEATVMSTFAEEIRKQ
Result: -2.01
